System: HEL
Assay: Cytostatic concentration required to inhibit HEL cell proliferation
Type: functional
Settings: Homo sapiens
Readout label: CC50 (µM)
Just the number in µM, nothing appended.

Would you please look over these solved cases?
Cc1cn([C@@H]2O[C@H](CO[Si](C)(C)C(C)(C)C)[C@@]3(OS(=O)(=O)C=C3NC(=O)C(=O)N3CCC3)[C@H]2O[Si](C)(C)C(C)(C)C)c(=O)n(C)c1=O: 84.4
Cc1cn([C@@H]2O[C@H](CO[Si](C)(C)C(C)(C)C)[C@@]3(OS(=O)(=O)C=C3NCC(N)=O)[C@H]2O[Si](C)(C)C(C)(C)C)c(=O)n(C)c1=O: 13.5
Cc1cn([C@@H]2O[C@H](CO[Si](C)(C)C(C)(C)C)[C@@]3(OS(=O)(=O)C=C3NC(=O)c3ccccc3)[C@H]2O[Si](C)(C)C(C)(C)C)c(=O)n(C)c1=O: 9.7
CCOC(=O)CN1C(=O)CN(C(=O)NC2=CS(=O)(=O)O[C@@]23[C@@H](CO[Si](C)(C)C(C)(C)C)O[C@@H](n2cc(C)c(=O)n(C)c2=O)[C@@H]3O[Si](C)(C)C(C)(C)C)C1=O: 2.5
Cc1cn([C@@H]2O[C@H](CO[Si](C)(C)C(C)(C)C)[C@@]3(OS(=O)(=O)C=C3NCCC(N)=O)[C@H]2O[Si](C)(C)C(C)(C)C)c(=O)n(C)c1=O: 14.8

Prompt line: Request - read-out CC50 | tested on HEL | compound CCOC(=O)CNC(=O)NC1=CS(=O)(=O)O[C@@]12[C@@H](CO[Si](C)(C)C(C)(C)C)O[C@@H](n1cc(C)c(=O)n(C)c1=O)[C@@H]2O[Si](C)(C)C(C)(C)C
Response line: 13

Prompt line: Quick one: CCOC(=O)NC(=O)NC1=CS(=O)(=O)O[C@@]12[C@@H](CO[Si](C)(C)C(C)(C)C)O[C@@H](n1cc(C)c(=O)n(C)c1=O)[C@@H]2O[Si](C)(C)C(C)(C)C
Response line: 14

Prompt line: Now the compound Cc1cn([C@@H]2O[C@H](CO[Si](C)(C)C(C)(C)C)[C@@]3(OS(=O)(=O)C=C3NCCC(=O)O)[C@H]2O[Si](C)(C)C(C)(C)C)c(=O)n(C)c1=O
Response line: 34

Prompt line: Record: Cc1cn([C@@H]2O[C@H](CO[Si](C)(C)C(C)(C)C)[C@@]3(OS(=O)(=O)C=C3NC(=O)C(=O)O)[C@H]2O[Si](C)(C)C(C)(C)C)c(=O)n(C)c1=O
Response line: 146

###

System: HEL
Experiment: Effective concentration required to inhibit HCMV AD-169 in HEL Cells
Type: functional, cell-based
Details: Homo sapiens
Readout label: pEC50
pEC50 is defined as minus the log10 of a concentration measured in mol/L.

Worked examples follow.
Cc1cn([C@@H]2O[C@H](CO[Si](C)(C)C(C)(C)C)[C@@]3(OS(=O)(=O)C=C3NC(=O)c3ccccc3)[C@H]2O[Si](C)(C)C(C)(C)C)c(=O)n(C)c1=O: 5.89
CCOC(=O)CN1C(=O)CN(C(=O)NC2=CS(=O)(=O)O[C@@]23[C@@H](CO[Si](C)(C)C(C)(C)C)O[C@@H](n2cc(C)c(=O)n(C)c2=O)[C@@H]3O[Si](C)(C)C(C)(C)C)C1=O: 6.54

Field: next molecule
Prompt line: Record Cc1cn([C@@H]2O[C@H](CO[Si](C)(C)C(C)(C)C)[C@@]3(OS(=O)(=O)C=C3NC(=O)NC(=O)c3ccccc3)[C@H]2O[Si](C)(C)C(C)(C)C)c(=O)n(C)c1=O : what is its pEC50 with HEL?
Response line: 5.92
